The origin of these recorded values is patent US12509421B2.

Biological target: CYP 3A4 (Homo sapiens)
Sequence (P08684 whole entry): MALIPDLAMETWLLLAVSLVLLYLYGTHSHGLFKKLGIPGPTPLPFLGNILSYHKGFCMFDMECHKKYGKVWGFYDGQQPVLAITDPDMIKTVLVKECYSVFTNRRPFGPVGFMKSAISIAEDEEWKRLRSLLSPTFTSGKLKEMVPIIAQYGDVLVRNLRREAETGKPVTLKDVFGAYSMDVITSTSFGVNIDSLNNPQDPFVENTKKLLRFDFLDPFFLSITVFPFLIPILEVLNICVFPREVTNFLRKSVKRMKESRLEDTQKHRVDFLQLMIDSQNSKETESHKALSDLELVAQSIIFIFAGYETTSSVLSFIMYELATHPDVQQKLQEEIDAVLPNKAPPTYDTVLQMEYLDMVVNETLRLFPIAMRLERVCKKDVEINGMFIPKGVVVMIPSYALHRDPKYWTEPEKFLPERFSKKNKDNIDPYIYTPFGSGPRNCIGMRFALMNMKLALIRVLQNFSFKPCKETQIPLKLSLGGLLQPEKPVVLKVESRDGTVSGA
Test: biochemical
Conditions: CYP 3A4 IC50, human liver microsomes; substrate midazolam
Where a name gives a salt, the structure may show the parent alone.
assay-metric: pIC50
Give bare numbers, as −log10 of the molar value.

List the reported pIC50 of each compound below.
1. [2H]C([2H])([2H])N(C)C[C@@H]1CN(S(=O)(=O)Cc2ccccc2)CC[C@@]1(O)c1cccc(OC)c1 [II-1hydrochloride]
2. [2H]C([2H])([2H])N(C[C@@H]1CN(C(=O)Cc2cc(F)c(F)cc2F)CC[C@@]1(O)c1cccc(OC)c1)C([2H])([2H])[2H] [II-9hydrochloride]
3. [2H]C([2H])([2H])N(C)C[C@@H]1CN(C(=O)Cc2cc(F)c(F)cc2F)CC[C@@]1(O)c1cccc(OC)c1 [II-7hydrochloride]

[4.37, 4.32, 4.30]

The reported pIC50 of the compound [2H]C([2H])([2H])N(C[C@@H]1CN(S(=O)(=O)Cc2ccccc2)CC[C@@]1(O)c1cccc(OC)c1)C([2H])([2H])[2H] [II-3hydrochloride] was 4.33

---

Biological target: μOR (Homo sapiens)
Sequence (P35372 whole entry): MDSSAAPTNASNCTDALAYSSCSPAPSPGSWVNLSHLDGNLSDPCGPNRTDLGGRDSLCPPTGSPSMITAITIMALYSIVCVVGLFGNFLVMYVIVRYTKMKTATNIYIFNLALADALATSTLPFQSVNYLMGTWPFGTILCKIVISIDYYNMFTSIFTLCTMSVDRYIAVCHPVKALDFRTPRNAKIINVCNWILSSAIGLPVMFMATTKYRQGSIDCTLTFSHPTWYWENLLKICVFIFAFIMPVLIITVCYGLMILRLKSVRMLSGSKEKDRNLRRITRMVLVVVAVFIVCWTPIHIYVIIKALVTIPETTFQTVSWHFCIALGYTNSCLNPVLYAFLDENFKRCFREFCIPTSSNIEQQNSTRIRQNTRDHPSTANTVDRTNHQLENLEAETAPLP
assay-metric: Ki (pM)
Numbers only, in pM.

The reported Ki of the molecule CN(C)C[C@@H]1CN(S(=O)(=O)Cc2ccccc2)CC[C@@]1(O)c1cccc(O)c1.Cl [Example 22 of CN201911076305.X, hydrochloride, reference compound] was 170

---

Test: Metabolic stability in liver microsomes, dog
Conditions: dog, microsomes, pH 7.4
Where a name gives a salt, the structure may show the parent alone.
So I've got a bunch of molecules here, and I need their half-life at 2 μM values.
One number for each entry, in min.

# molecule, measurement-units, half-life at 2 μM
measured = [
    ("[2H]C([2H])([2H])Oc1cccc([C@]2(O)CCN(S(=O)(=O)Cc3ccccc3)C[C@H]2CN(C([2H])([2H])[2H])C([2H])([2H])[2H])c1 [II-5hydrochloride]", "min", 6.03),
]

List the reported half-life at 2 μM of each molecule below.
1. [2H]C([2H])([2H])N(C[C@@H]1CN(S(=O)(=O)Cc2ccccc2)CC[C@@]1(O)c1cccc(OC)c1)C([2H])([2H])[2H] [II-3hydrochloride]
2. COc1ccsc1CNCC[C@@]1(c2ccccn2)CCOC2(CCCC2)C1 [TRV-130, reference compound]
3. [2H]C([2H])([2H])N(C[C@@H]1CN(C(=O)Cc2cc(F)c(F)cc2F)CC[C@@]1(O)c1cccc(OC)c1)C([2H])([2H])[2H] [II-9hydrochloride]
4. [2H]C([2H])([2H])N(C)C[C@@H]1CN(S(=O)(=O)Cc2ccccc2)CC[C@@]1(O)c1cccc(OC)c1 [II-1hydrochloride]

5.26
2.22
5.19
5.01

List the reported half-life at 2 μM of each molecule below.
1. [2H]C([2H])([2H])N(C)C[C@@H]1CN(C(=O)Cc2cc(F)c(F)cc2F)CC[C@@]1(O)c1cccc(OC)c1 [II-7hydrochloride]
2. [2H]C([2H])([2H])Oc1cccc([C@]2(O)CCN(C(=O)Cc3cc(F)c(F)cc3F)C[C@H]2CN(C([2H])([2H])[2H])C([2H])([2H])[2H])c1 [II-11hydrochloride]

1. 5.25
2. 5.99
